The reported numbers originate from ChEMBL document CHEMBL1143952.

- Assay text: Metabolic stability in human plasma assessed as biotransformation after 24 hrs relative to unaltered compound
Below, each entry is listed with its recorded metabolised at 24 h.
API: value field is a number in %; no unit string.

Molecule: C[N+](C)(C)C[C@H](CC(=O)O)OC(=O)CCCCCO[N+](=O)[O-].[Cl-]
Readout value: 45

Molecule: C[N+](C)(C)C[C@H](CC(=O)O)OC(=O)CCCCCCCCCCCCCCCO[N+](=O)[O-].[Cl-]
Readout value: 100

Molecule: CCOC(=O)C[C@@H](C[N+](C)(C)C)OC(=O)CCCCCO[N+](=O)[O-].[Cl-]
Readout value: 100

Proceed to the following item.
INPUT: Would you mind telling me what metabolised at 24 h value was observed for `CCOC(=O)C[C@@H](C[N+](C)(C)C)OC(=O)CCCCCCCCCCCCCCCO[N+](=O)[O-].[Cl-]` ?
OUTPUT: 100

---

Below, each entry is listed with its recorded metabolised at 24 h.
- Assay text: Metabolic stability in human RBC assessed as biotransformation after 24 hrs relative to unaltered compound
- Type: ADME, cell-based, Erythrocyte
- Condition summary: red blood cells (RBC), read-out: Activity
API: value field is a number in %; no unit string.

Molecule: CCOC(=O)C[C@@H](C[N+](C)(C)C)OC(=O)CCCCCCCCCCCCCCCO[N+](=O)[O-].[Cl-]
Unit annotation: %
metabolised at 24 h: 73

Molecule: C[N+](C)(C)C[C@H](CC(=O)O)OC(=O)CCCCCCCCCCCCCCCO[N+](=O)[O-].[Cl-]
Unit annotation: %
metabolised at 24 h: 56

Molecule: CCOC(=O)C[C@@H](C[N+](C)(C)C)OC(=O)CCCCCO[N+](=O)[O-].[Cl-]
Unit annotation: %
metabolised at 24 h: 100

Proceed to the following item.
INPUT: Would you mind telling me what metabolised at 24 h value was observed for `C[N+](C)(C)C[C@H](CC(=O)O)OC(=O)CCCCCO[N+](=O)[O-].[Cl-]` ?
OUTPUT: 100

---

- Assay text: Metabolic stability in phosphate buffer saline assessed as biotransformation after 24 hrs relative to unaltered compound
- Assay type: ADME
- Condition summary: phosphate buffered saline; read-out: Activity
Below, each entry is listed with its recorded degraded at 24 h.
API: value field is a number in %; no unit string.

Worked examples, 3 compounds total:
Molecule: C[N+](C)(C)C[C@H](CC(=O)O)OC(=O)CCCCCCCCCCCCCCCO[N+](=O)[O-].[Cl-]
Experimental readout: degraded at 24 h
Readout value: 100
//
Molecule: CCOC(=O)C[C@@H](C[N+](C)(C)C)OC(=O)CCCCCO[N+](=O)[O-].[Cl-]
Experimental readout: degraded at 24 h
Readout value: 100
//
Molecule: CCOC(=O)C[C@@H](C[N+](C)(C)C)OC(=O)CCCCCCCCCCCCCCCO[N+](=O)[O-].[Cl-]
Experimental readout: degraded at 24 h
Readout value: 100

Proceed to the following item.
INPUT: Would you mind telling me what degraded at 24 h value was observed for `C[N+](C)(C)C[C@H](CC(=O)O)OC(=O)CCCCCO[N+](=O)[O-].[Cl-]` ?
OUTPUT: 100

---

- Assay text: Metabolic stability in human RBC assessed as nitrite or nitrate production after 24 hrs
- Format: ADME, cell-based
- Condition summary: erythrocyte
Experimental readout: Activity (nmol/mL)
API: value field is a number in nmol/mL; no unit string.

Molecule: C[N+](C)(C)C[C@H](CC(=O)O)OC(=O)CCCCCO[N+](=O)[O-].[Cl-]
Unit annotation: nmol/mL
Activity: 23

INPUT: Would you mind telling me what Activity value was observed for `CCOC(=O)C[C@@H](C[N+](C)(C)C)OC(=O)CCCCCO[N+](=O)[O-].[Cl-]` ?
OUTPUT: 22

INPUT: Would you mind telling me what Activity value was observed for `C[N+](C)(C)C[C@H](CC(=O)O)OC(=O)CCCCCCCCCCCCCCCO[N+](=O)[O-].[Cl-]` ?
OUTPUT: 62

INPUT: Would you mind telling me what Activity value was observed for `CCOC(=O)C[C@@H](C[N+](C)(C)C)OC(=O)CCCCCCCCCCCCCCCO[N+](=O)[O-].[Cl-]` ?
OUTPUT: 40
